Listing of entries alongside the reported pIC50.
Tested on: Leishmania donovani
testSummary: In vitro inhibitory concentration against Leishmania donovani intracellular amastigotes
Type: functional, organism-based
Field pIC50 (float): negative decimal logarithm of the concentration in molar.

For orientation, consider the following solved cases.
CC(O)(c1ccncc1)[C@H]1CC[C@H]2[C@@H]3CCC4C[C@@H](O[Si](C)(C)C(C)(C)C)CC[C@]4(C)[C@H]3CC[C@]12C (some centres not stated)    4.82
CC(O)(c1ccccn1)[C@H]1CC[C@H]2[C@@H]3CCC4C[C@@H](O)CC[C@]4(C)[C@H]3CC[C@]12C (some centres not stated)    4.84
CC(O)(C1CCCNC1)[C@H]1CC[C@H]2[C@@H]3CCC4C[C@@H](O[Si](C)(C)C(C)(C)C)CC[C@]4(C)[C@H]3CC[C@]12C (some centres not stated)    5.19
CC(O)(c1cccnc1)[C@H]1CC[C@H]2[C@@H]3CCC4C[C@@H](O[Si](C)(C)C(C)(C)C)CC[C@]4(C)[C@H]3CC[C@]12C (some centres not stated)    4.86
CCC(=O)N1CCCC(C(C)(O)[C@H]2CC[C@H]3[C@@H]4CCC5C[C@@H](O)CC[C@]5(C)[C@H]4CC[C@]23C)C1 (some centres not stated)    4.42

Entry CC(O)(c1cccnc1)[C@H]1CC[C@H]2[C@@H]3CCC4C[C@@H](O)CC[C@]4(C)[C@H]3CC[C@]12C (some centres not stated) : pIC50 on Leishmania donovani = 4.63

Entry CC(O)(c1ccncc1)[C@H]1CC[C@H]2[C@@H]3CCC4C[C@@H](O)CC[C@]4(C)[C@H]3CC[C@]12C (some centres not stated) , Leishmania donovani data, pIC50 value: 4.95

Fill in: Leishmania donovani pIC50 for CC(O)(C1CCCCN1)[C@H]1CC[C@H]2[C@@H]3CCC4C[C@@H](O)CC[C@]4(C)[C@H]3CC[C@]12C (some centres not stated) = 5.05

---

Test system: Leishmania donovani
testSummary: In vitro inhibitory concentration against Leishmania donovani intracellular amastigotes
Type: functional, organism-based
property: IC50

CCC(=O)N1CCCC(C(C)(O)[C@H]2CC[C@H]3[C@@H]4CCC5C[C@@H](O[Si](C)(C)C(C)(C)C)CC[C@]5(C)[C@H]4CC[C@]23C)C1 (some centres undefined)    > 52 µM
CC(O)(c1ccncc1Cl)[C@H]1CC[C@H]2[C@@H]3CCC4C[C@@H](O)CC[C@]4(C)[C@H]3CC[C@]12C (some centres undefined)    > 69 µM
CC(O)(C1CCCCN1)[C@H]1CC[C@H]2[C@@H]3CCC4C[C@@H](O[Si](C)(C)C(C)(C)C)CC[C@]4(C)[C@H]3CC[C@]12C (some centres undefined)    > 58 µM

Alright, here's another compound for you.
// IC50 value for CCC(=O)N1CCCCC1C(C)(O)[C@H]1CC[C@H]2[C@@H]3CCC4C[C@@H](O[Si](C)(C)C(C)(C)C)CC[C@]4(C)[C@H]3CC[C@]12C (some centres undefined) : > 52 µM
